The measurements presented in this section are drawn from patent US20120164137A1.

// reported Half-Maximal Internalization Constant per item
Target Under Test: Human FRA on IGROV-1 human ovarian adenocarcinoma cells (human, UniProt P15328 25-234)
Sequence (P15328 25-234 limits assumed): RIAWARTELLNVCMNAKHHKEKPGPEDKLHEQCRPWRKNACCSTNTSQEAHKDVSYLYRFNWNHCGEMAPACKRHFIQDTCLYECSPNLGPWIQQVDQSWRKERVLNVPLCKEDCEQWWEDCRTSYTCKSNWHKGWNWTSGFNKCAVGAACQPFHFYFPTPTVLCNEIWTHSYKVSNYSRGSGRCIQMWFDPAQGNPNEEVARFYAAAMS
Experiment: cell-based or functional assay

Binder: MORAb-003 anti-FRA antibody, lot NB859-26 (harvested 17 days after initiation of culture) (antibody, human IgG1, kappa, V domains shown, N-linked neutral glycans at Asn299 in SEQ ID NO: 5, also called Day 17 harvest) VH: EVQLVESGGGVVQPGRSLRLSCSASGFTFSGYGLSWVRQAPGKGLEWVAMISSGGSYTYYADSVKGRFAISRDNAKNTLFLQMDSLRPEDTGVYFCARHGDDPAWFAYWGQGTPVTVSS VL: DIQLTQSPSSLSASVGDRVTITCSVSSSISSNNLHWYQQKPGKAPKPWIYGTSNLASGVPSRFSGSGSGTDYTFTISSLQPEDIATYYCQQWSSYPYMYTFGQGTKVEIKR
Unit: min
Half-Maximal Internalization Constant: 36.6
//
Binder: MORAb-003 anti-FRA antibody, lot NB810-13 (high osmolarity; harvested 14 days after initiation of culture) (antibody, human IgG1, kappa, V domains shown, N-linked neutral glycans at Asn299 in SEQ ID NO: 5) VH: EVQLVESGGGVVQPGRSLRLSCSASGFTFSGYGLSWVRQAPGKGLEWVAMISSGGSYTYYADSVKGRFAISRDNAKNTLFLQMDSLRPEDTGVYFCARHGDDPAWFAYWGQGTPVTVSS VL: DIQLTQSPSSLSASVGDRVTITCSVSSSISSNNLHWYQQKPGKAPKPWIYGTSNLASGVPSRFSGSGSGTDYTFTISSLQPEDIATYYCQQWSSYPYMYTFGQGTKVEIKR
Unit: min
Half-Maximal Internalization Constant: 49.6
//
Binder: MORAb-003 anti-FRA antibody, lot NB809-69 (10 mM Na butyrate; harvested 13 days after initiation of culture) (antibody, human IgG1, kappa, V domains shown, N-linked neutral glycans at Asn299 in SEQ ID NO: 5) VH: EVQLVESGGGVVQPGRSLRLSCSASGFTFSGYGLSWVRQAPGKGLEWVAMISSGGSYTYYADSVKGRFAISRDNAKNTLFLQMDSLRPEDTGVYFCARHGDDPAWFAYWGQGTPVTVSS VL: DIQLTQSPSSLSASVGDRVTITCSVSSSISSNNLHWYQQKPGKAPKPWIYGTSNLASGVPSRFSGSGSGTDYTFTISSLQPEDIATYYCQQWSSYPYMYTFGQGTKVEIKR
Unit: min
Half-Maximal Internalization Constant: 51.2
//
Binder: MORAb-003 anti-FRA antibody, lot NB859-25 (harvested 14 days after initiation of culture) (antibody, human IgG1, kappa, V domains shown, N-linked neutral glycans at Asn299 in SEQ ID NO: 5, also called Day 14 harvest; positive control (round 3)) VH: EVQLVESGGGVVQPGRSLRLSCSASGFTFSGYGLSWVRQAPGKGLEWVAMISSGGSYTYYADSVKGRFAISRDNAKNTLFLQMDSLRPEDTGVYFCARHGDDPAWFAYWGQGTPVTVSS VL: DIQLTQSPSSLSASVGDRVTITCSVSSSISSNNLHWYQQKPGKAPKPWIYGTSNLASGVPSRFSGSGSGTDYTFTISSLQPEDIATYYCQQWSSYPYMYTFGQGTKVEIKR
Unit: min
Half-Maximal Internalization Constant: 42
//
Binder: MORAb-003 anti-FRA antibody, lot NB810-11 (galactose supplement; harvested 14 days after initiation of culture) (antibody, human IgG1, kappa, V domains shown, N-linked neutral glycans at Asn299 in SEQ ID NO: 5) VH: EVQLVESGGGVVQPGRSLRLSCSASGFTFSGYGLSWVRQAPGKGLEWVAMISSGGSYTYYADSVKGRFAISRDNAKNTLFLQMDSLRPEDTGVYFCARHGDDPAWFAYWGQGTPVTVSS VL: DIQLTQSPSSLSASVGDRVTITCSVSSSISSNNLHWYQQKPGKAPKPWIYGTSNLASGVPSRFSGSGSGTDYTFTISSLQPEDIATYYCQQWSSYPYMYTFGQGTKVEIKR
Unit: min
Half-Maximal Internalization Constant: 56.6
//
Binder: MORAb-003 anti-FRA antibody, lot NB859-27 (harvested 20 days after initiation of culture) (antibody, human IgG1, kappa, V domains shown, N-linked neutral glycans at Asn299 in SEQ ID NO: 5, also called Day 20 harvest) VH: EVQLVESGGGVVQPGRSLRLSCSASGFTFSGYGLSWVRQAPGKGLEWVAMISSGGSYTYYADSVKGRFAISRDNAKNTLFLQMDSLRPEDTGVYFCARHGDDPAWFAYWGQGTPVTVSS VL: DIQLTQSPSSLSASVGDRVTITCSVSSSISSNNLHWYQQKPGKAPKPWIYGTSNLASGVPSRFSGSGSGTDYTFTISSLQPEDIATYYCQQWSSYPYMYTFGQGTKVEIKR
Unit: min
Half-Maximal Internalization Constant: 37.3
//
Binder: MORAb-003 anti-FRA antibody, lot NB859-24 (harvested 10 days after initiation of culture) (antibody, human IgG1, kappa, V domains shown, N-linked neutral glycans at Asn299 in SEQ ID NO: 5, also called Day 10 harvest) VH: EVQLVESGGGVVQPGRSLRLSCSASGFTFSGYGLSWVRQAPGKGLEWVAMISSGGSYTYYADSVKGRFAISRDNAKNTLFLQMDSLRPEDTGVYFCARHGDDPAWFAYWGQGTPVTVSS VL: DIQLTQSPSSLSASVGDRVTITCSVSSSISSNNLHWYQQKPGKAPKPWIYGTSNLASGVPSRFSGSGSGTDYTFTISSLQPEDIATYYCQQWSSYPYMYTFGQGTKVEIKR
Unit: min
Half-Maximal Internalization Constant: 44.6
//
Binder: MORAb-003 anti-FRA antibody, lot NB809-70 (CuCl supplement; harvested 13 days after initiation of culture) (antibody, human IgG1, kappa, V domains shown, N-linked neutral glycans at Asn299 in SEQ ID NO: 5) VH: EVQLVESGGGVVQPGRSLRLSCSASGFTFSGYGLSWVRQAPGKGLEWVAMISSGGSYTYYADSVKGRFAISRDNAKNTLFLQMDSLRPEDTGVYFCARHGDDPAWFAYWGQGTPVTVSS VL: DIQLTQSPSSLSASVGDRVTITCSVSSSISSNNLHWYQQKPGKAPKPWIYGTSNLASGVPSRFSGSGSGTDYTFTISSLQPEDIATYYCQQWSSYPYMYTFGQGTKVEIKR
Unit: min
Half-Maximal Internalization Constant: 53.3
//
Binder: MORAb-003 anti-FRA antibody, lot NB810-12 (low temperature; harvested 14 days after initiation of culture) (antibody, human IgG1, kappa, V domains shown, N-linked neutral glycans at Asn299 in SEQ ID NO: 5) VH: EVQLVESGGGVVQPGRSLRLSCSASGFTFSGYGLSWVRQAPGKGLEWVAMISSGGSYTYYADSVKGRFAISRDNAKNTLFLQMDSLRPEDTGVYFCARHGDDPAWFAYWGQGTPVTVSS VL: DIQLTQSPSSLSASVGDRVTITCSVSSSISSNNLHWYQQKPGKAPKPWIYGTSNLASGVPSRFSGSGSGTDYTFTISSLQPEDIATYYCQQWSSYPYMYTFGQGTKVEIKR
Unit: min
Half-Maximal Internalization Constant: 41.2
//
Binder: MORAb-003 anti-FRA antibody, lot NB809-67 (low DO; harvested 13 days after initiation of culture) (antibody, human IgG1, kappa, V domains shown, N-linked neutral glycans at Asn299 in SEQ ID NO: 5) VH: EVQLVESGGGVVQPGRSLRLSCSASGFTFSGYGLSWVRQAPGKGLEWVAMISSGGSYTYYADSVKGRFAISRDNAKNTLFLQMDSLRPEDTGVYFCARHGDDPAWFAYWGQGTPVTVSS VL: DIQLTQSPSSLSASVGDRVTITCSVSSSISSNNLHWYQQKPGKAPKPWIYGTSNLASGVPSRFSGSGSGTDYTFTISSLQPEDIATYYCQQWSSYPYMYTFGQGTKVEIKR
Unit: min
Half-Maximal Internalization Constant: 50.7
